Entry source: patent US20110182904A1

target_under_test: T1, human bone morphogenic protein 4 (BMP4) (human, UniProt P12644 293-408)
T1 construct: Bought recombinant human BMP4 (R&D Systems); also called recombinant human BMP4
T1 sequence: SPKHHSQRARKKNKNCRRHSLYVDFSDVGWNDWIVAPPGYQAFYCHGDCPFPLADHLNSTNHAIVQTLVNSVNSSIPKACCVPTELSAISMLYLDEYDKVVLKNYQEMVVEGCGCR
assay_details: SPR (Biacore); mAb captured via anti-human Fc, BMP flowed at 10 nM
Procedure: The antigen-antibody association kinetics was followed for 2 minutes and the dissociation kinetics was followed for 8 minutes. The association and dissociation curves were fit to a 1:1 Langmuir binding model using BIAevaluation software (Biacore, AB).
Below, each entry is listed with its recorded kon.

binder	units_text	kon
33F7 human monoclonal antibody (antibody, V domains shown, Human IgG from a HuMAb/KM mouse hybridoma) VH: QVQLVQSGAEVKKPGSSVKVSCKASGGTFSSYAINWVRQAPGQGLEWMGRLIPILGIANYAQKFQGRVTITADKSTSTAYMELSSLRSEDTAVYYCARGKDIWGQGTMVTVSS VL: EIVLTQSPGTLSLSPGERVTLSCRASQSVSSNYLAWYQQKPGQAPRLLIKGASSRATGIPDRFSGSGSGTDFTLTISRLEPEDFAVYYCQQYGSSPCTFGQGTKLEIK	M⁻¹ s⁻¹	3.65e+06
6H4 human monoclonal antibody (antibody, V domains shown, Human IgG from a HuMAb/KM mouse hybridoma) VH: QVHLQQWGAGLLKPSETLSLTCAVYGGSFSGYYWSWIRQPPGKGLEWIGEINHSGSTNYNPSLKSRVTISVDTSKNQFSLKLSSVTAADTAVYYCAREYYYGSESEYFQHWGQGTLVTVSS VL: EIVLTQSPATLSLSPGERATLSCRASQSVSSYLAWYQQKPGQAPRLLIYDASNRATGIPARFSGSGSGTDFTLTISSLEPEDFAVYYCQQRSNWPHTFGQGTKLEIK	M⁻¹ s⁻¹	2e+06
12E3 human monoclonal antibody (antibody, V domains shown, Human IgG from a HuMAb/KM mouse hybridoma) VH: QVQLVESGGGVVQPGRSLRLSCAASGFTFSSYGMHWVRQAPGKGLEWVAVIWDDGRKKYYADSVKGRFTISRDNSKNTLYLQMNSLRAEDTAVYYCAREPAGVWGMDVWGQGTTVTVSS VL: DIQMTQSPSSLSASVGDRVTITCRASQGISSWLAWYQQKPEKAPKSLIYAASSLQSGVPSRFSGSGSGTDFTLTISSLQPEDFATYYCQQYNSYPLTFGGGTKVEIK	M⁻¹ s⁻¹	1.75e+06
10F6 human monoclonal antibody (antibody, V domains shown, Human IgG from a HuMAb/KM mouse hybridoma) VH: QVQLVESGGGVVQPGRSLRLSCAASGFTFRSYGIHWVRQAPGKGLEWVAVIWYDGSHKYYADSVKGRFTISRDNSKNTLDLQMNSLRAEDTAVYYCVRGSSNWYFDYWGQGTLVTVSS VL: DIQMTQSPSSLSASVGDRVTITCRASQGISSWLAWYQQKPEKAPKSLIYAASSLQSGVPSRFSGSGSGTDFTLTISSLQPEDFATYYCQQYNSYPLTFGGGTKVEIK	M⁻¹ s⁻¹	2.61e+06
7D6 human monoclonal antibody (antibody, V domains shown, Human IgG from a HuMAb/KM mouse hybridoma) VH: QVQLVQSGAEVKKPGSSVKVSCKASGGTFSSYAISWVRQAPGQGLEWMGRIIPILGIVNYAQKFQGRVTITADKSTSTAYMELSSLRSEDTAVYYCARGKDIWGQGTMVTVSS VL: EIVLTQSPGTLSLSPGERATLSCRASQIVISTYLAWYQQKPGQAPRLLIYGASSRATGIPDRFSGSGSGTDFTLTISRLEPEDFAVYYCQQYGSSPCTFGQGTKLEIK	M⁻¹ s⁻¹	2.84e+06
16B7 human monoclonal antibody (antibody, V domains shown, Human IgG from a HuMAb/KM mouse hybridoma) VH: QVQLVESGGGVVQPGRSLRLSCAASGFTFSNYGIHWVRQAPGKGLEWVAVIWYDGSHKYYADSMKGRFTISRDNSKNTLDLQMNSLRAEDTAVYYCARGSSSWYFDLWGRGTLVTVSS VL: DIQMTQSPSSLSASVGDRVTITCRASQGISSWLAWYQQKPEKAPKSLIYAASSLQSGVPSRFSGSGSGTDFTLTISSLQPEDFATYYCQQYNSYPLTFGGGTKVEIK	M⁻¹ s⁻¹	2.86e+06
